This collection of values is drawn from patent EP4790048A1.

Target: hS1P1 (Homo sapiens)
Construct: expressed in transfected cells; host or cells: CHO
Sequence (P21453 whole entry): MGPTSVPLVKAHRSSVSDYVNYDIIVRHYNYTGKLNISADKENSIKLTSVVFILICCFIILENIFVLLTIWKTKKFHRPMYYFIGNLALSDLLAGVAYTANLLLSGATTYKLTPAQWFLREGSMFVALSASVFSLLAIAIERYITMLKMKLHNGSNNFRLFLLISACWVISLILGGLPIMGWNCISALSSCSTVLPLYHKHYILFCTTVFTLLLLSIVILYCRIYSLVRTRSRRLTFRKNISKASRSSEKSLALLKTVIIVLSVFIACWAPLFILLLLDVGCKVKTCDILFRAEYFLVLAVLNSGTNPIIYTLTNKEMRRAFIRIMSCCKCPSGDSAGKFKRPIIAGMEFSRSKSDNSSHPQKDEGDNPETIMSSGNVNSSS
Experiment: Tango β-arrestin recruitment luciferase assay, Tango-hS1P1-CHO
Type: cell-based
Conditions: β-arrestin recruitment; 20 h drug treatment; top 45 µM, 9 serial 5-fold dilutions; positive control 1 µM BAF-312; read-out: Tango-hS1P1-CHO EC50
PARAMETER_MEASURED: pEC50
Give bare numbers, as −log10 of the molar value.

C/C(=N\OCc1ccc(C2CCCCC2)c(C(F)(F)F)c1)c1ccc(CNC2CCCC(C(=O)O)C2)cc1 (centres unmarked) [Compound 9] | 6.34
C/C(=N\OCc1ccc(C2CCCCC2)cc1)c1ccc(CN2CC(C(=O)O)C2)cc1 [Compound 1] | 6.16
CCc1cc(/C(C)=N/OCc2ccc(-c3ccncc3)c(C)c2)ccc1CN1CC[C@H](C(=O)O)C1 [Compound 37] | 6.19

Give pEC50 for each listed item.
1. CCc1cc(/C(C)=N/OCc2ccc(C)c(C(F)(F)F)c2)ccc1CN1CC(C(=O)O)C1 [Compound 14]
2. CCc1cc(/C(C)=N/OCc2ccc(-c3ccccc3)c(F)c2)ccc1CN1CC[C@H](C(=O)O)C1 [Compound 35]
3. CCc1cc(/C(C)=N/OCc2ccc3c(c2)CCCC3)ccc1CN1CC(C(=O)O)C1 [Compound 23]
4. C/C(=N\OCc1ccc(C2CCCCC2)c(C(F)(F)F)c1)c1ccc(CN2CCCC(C(=O)O)C2)cc1 (centres unmarked) [Compound 7]

Result:
5.22
6.98
6.25
6.29
